- test-summary: qHTS assay for small molecule agonists of the antioxidant response element (ARE) signaling pathway (AID 651741)
- conditions: HepG2 ARE-bla reporter, beta-lactamase FRET ratio, 16 h; series mostly up to 96 µM
Inconclusive results are not listed. Calls of active or inactive are those of the source. Calls follow the shape of the dose curve; as a rule, active = well fitted activation curve with a large enough effect in the signal ratio; inconclusive = small, poorly fitted or top-dose-only effect, or effect the other way, or a change in a side signal; inactive = flat fitted curve, though single readings scatter; the % refers to the signal ratio.
reported-metric: outcome

Study these solved cases before continuing.
compound	outcome
CC1CCC2CC1C2(C)C (stereo not drawn)	inactive
CCCCCCCCN	inactive
C=Cc1ccc(C=C)cc1	inactive
CC(C)c1ccccc1	inactive
CC(=O)OC(C)=O	inactive
CC(=O)c1ccccc1[N+](=O)[O-]	inactive

Can you give me outcome for all of these, one by one?
1. NS(=O)(=O)O
2. Nc1cc(S(=O)(=O)O)ccc1O

inactive
inactive

These entries and their values trace back to PubChem BioAssay (NCATS).
